Data origin, for the record: patent US12539292B2

Study target: BRM (Homo sapiens)
Construct: In-Cell Western Screen of BRM Degradation in SW1573 Cells; endogenous in cells; host or cells: SW1573
Sequence (P51531 whole entry): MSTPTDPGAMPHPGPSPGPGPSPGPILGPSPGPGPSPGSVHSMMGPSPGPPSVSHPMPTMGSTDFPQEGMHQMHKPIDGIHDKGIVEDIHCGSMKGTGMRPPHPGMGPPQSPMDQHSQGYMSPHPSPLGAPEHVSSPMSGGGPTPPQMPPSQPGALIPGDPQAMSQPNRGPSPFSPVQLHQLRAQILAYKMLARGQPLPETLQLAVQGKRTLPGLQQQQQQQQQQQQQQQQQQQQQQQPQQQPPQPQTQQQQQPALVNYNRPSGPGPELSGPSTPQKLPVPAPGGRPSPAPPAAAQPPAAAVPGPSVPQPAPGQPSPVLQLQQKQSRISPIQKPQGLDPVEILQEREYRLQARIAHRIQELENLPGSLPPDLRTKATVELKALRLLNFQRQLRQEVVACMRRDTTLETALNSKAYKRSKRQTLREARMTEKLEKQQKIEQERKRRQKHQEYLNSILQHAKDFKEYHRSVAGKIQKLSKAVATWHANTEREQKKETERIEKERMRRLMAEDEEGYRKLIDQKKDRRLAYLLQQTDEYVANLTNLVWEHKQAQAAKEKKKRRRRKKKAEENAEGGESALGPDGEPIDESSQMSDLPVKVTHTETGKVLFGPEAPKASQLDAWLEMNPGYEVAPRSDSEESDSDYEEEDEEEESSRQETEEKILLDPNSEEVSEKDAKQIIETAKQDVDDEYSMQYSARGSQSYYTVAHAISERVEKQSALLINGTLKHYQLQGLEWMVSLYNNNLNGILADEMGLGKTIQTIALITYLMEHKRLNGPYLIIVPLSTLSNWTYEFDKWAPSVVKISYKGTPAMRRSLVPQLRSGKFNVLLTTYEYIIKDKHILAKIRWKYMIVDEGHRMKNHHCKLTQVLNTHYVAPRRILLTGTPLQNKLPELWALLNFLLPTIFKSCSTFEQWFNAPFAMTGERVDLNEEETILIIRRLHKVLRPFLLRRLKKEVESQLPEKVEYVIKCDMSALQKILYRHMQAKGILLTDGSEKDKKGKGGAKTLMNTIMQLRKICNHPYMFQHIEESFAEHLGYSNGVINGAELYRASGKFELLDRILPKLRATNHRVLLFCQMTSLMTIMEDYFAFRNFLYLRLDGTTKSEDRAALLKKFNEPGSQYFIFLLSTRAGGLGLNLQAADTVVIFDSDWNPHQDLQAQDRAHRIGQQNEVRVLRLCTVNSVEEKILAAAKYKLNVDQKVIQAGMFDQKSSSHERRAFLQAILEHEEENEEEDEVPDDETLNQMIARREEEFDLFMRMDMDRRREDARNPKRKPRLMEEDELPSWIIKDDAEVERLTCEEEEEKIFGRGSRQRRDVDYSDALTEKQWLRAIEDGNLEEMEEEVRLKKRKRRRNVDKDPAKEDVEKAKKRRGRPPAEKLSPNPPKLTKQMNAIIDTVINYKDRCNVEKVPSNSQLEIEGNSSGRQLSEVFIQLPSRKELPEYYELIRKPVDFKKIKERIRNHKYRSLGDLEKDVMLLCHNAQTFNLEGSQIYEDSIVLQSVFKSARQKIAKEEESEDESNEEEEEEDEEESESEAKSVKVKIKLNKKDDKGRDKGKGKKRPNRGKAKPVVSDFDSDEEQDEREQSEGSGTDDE
Method description: In-cell Western screen of BRM degradation in SW1573 cells (Dmax and DC50)
Type: cell-based
Condition context: BRM degradation, SW1573 cells; Table 2D; read-out: *DC50
Outcome measure: DC50

{"Smiles str": "Cc1ncsc1-c1ccc([C@H](C)NC(=O)[C@@H]2C[C@@H](O)CN2C(=O)[C@@H](c2cc(N3CCC(CN4CCC(Oc5cc(N6C7CCC6CN(c6cc(-c8ccccc8O)nnc6N)C7)ccn5)CC4)CC3)no2)C(C)C)cc1", "Test result": "< 2.5 nM"}
{"Smiles str": "Cc1ncsc1-c1ccc([C@H](C)NC(=O)[C@@H]2C[C@@H](O)CN2C(=O)[C@H](c2cc(N3CCC(CN4CCC(O[C@H]5C[C@H](Oc6cc(/C=C/c7cc(-c8ccccc8O)nnc7N)ccn6)C5)CC4)CC3)no2)C(C)C)cc1", "Test result": "> 30 nM"}
{"Smiles str": "Cc1ncsc1-c1ccc([C@H](C)NC(=O)[C@@H]2C[C@@H](O)CN2C(=O)[C@H](c2cc(N3CCC(CN4CCC(O[C@H]5C[C@H](CN6CCOC7(CCN(c8cc(-c9ccccc9O)nnc8N)CC7)C6)C5)CC4)CC3)no2)C(C)C)cc1", "Test result": "> 30 nM"}
{"Smiles str": "Cc1ncsc1-c1ccc([C@H](C)NC(=O)[C@@H]2C[C@@H](O)CN2C(=O)[C@H](c2cc(N3CC(COCCOc4cc(N5C6CCC5CN(c5cc(-c7ccccc7O)nnc5N)C6)ccn4)C3)no2)C(C)C)cc1", "Test result": "> 30 nM"}
